Biological target: Cannabinoid receptor 2 (Homo sapiens)
Sequence (P34972 whole entry): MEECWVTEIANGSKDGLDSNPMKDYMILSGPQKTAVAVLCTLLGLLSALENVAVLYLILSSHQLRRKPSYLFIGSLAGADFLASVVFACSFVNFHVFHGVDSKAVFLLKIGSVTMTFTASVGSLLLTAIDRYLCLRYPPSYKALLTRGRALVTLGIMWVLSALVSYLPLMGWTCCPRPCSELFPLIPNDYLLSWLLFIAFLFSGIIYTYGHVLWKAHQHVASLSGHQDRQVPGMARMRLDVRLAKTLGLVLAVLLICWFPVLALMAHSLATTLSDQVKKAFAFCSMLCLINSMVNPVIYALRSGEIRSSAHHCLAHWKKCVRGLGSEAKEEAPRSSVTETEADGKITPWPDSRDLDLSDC
ENDPOINT LABEL: pKi
Expect pKi as a plain number equal to -log10 of the molar concentration.

Item under review: CC(C)(C)c1nc(N2CCC(F)(F)C2)c2nn(Cc3ccc(C4(C(F)(F)F)N=N4)cc3Cl)nc2n1 . Reported pKi?
5.63
